assay: soluble on expression in E. coli; label from the status in PepcDB or PDB records
Parameter: soluble on expression in E. coli

Macromolecule sequence	Parameter	Value measured
MNEPPVSVVLPTYDRPEILRNAVKSVQEQTYRHIELVVVDDHSPTPAADTLSPLSFDELTVEIIRHEENRGANEARNTGIRESTGEYIAFLDDDDDWAPSKIEKQVAVFREASPEVGVVYTGSEYVYDDYVRTVVFSLEGDVTEEMLRGRSLGEFTTLMVRRDVAMAAGLPDTDFPSWQDRDWLLRLSCHCKFKTVPEALTTRRRKTGEDSISDNFEEKRDISYPLFIEKHRDLAAEYGWRCERAFMAATTESLGQEALKNGYYADAKKYFLKALRYHPLDRSRLVYALVAYGGKYTYGAAHTLASLLHRVRTDTIHKLEHHHHHH	soluble on expression in E. coli	not soluble
MLSKKLHDALNDQMNFEFYSAHAYMAMAAYCTAESYDGFANFFLVQAEEERFHAMKLYNYINDRGERAIITGFDNPNNEYESVLNAFEVALEHEREVTKRIYNLSDIAWDEREHATITFLKWFVDEQVEEEASFDSIIQKLKRITSDSNALFMLDAELEKRTFTPPAE	soluble on expression in E. coli	not soluble
